# PROTOCOL: chemical genetic growth profiling, strain panel (AID 1159580);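 note: tested at 20 µM; growth read once vehicle control cultures reached saturation at 30 °C; 1 = growth at the plate median or of vehicle wells; lower values mean less growth of the strain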
# CONDITIONS: S. cerevisiae deletion strains, growth OD, locus YOR184W, strain ser1
In all, about 5,500 compounds went through this assay and about 2,000 (36%) were called active. Roughly 18% stayed inconclusive and do not appear here. Cut-off read from the data, not from the text of the source: active = normalized growth mostly below about 0.91 (no sharp cut-off); inconclusive = no clear call, values can overlap the other calls; inactive = mostly above about 0.92. This is one part of the list.
Returns: one label drawn from yes (1) for active, no (0) for inactive

C#C[C@]1(O)CCC2C3CCC4=CC(=O)CC[C@@H]4C3CC[C@@]21CC (some centres not stated)
no (0)
CC(=O)OC1CC(OC(C)=O)C2(C)C(CC(OC(C)=O)C3(C)C4=CC(=O)OC(=O)C4(C)CCC32)C1(C)C (configuration not stated)
no (0)
NC12CC3CC(CC(C3)C1)C2
no (0)
NCCC(=O)N[C@@H](Cc1cnc[nH]1)C(=O)O
no (0)
C/C=C(/C)C(=O)OC1CCC2(C)C3CCC4C5(O)CC(O)C6(O)C(CN7CC(C)CCC7C6(C)O)C5(O)CC42OC13O (configuration not stated)
yes (1)

Q. Hi, sorry to bother you, what did the test record for C/C=C(/C)C(=O)O[C@H]1CC[C@@]2(C)[C@@H]3CC[C@H]4[C@]5(O)C[C@H](O)[C@@]6(O)[C@@H](CN7C[C@@H](C)CC[C@H]7[C@@]6(C)O)[C@]5(O)C[C@@]42O[C@]13O ?
A. no (0)

Q. Test call for this compound, please: C/C=C1\[C@H]2C=C(C)C[C@]1(N)c1ccc(=O)[nH]c1C2
A. no (0)

Q. Identify the outcome logged in this assay for the compound shown: C[C@]12CCC(=O)C=C1CCC1C2[C@@H](O)C[C@@]2(C)C1CC[C@]2(O)C(=O)CO (some centres not stated)
A. no (0)

Q. I'd appreciate the recorded outcome for NC(Cc1c[nH]c2ccccc12)C(=O)O (configuration not stated) from this test.
A. no (0)

Q. How did this test come out for N=C(N)c1ccc(OCCCCCOc2ccc(C(=N)N)cc2)cc1 ?
A. yes (1)

Q. What was the test verdict on C#C[C@]1(O)CCC2C3CCC4=CC(=O)CC[C@@H]4C3CC[C@@]21C (some centres not stated) ?
A. yes (1)

Q. # lookup: test call for Cc1ccc(S(=O)(=O)NC(=O)NN2CC3CCCC3C2)cc1 (configuration not stated)
A. no (0)

Q. Assay result, entry O=C1C(O)=C(O)C(=O)C(O)=C1O — outcome?
A. no (0)

Q. Please state the recorded outcome for this compound: CC1C(=O)OC2C1CCC1(C)C=CC(=O)C3(C)OC213 (configuration not stated)
A. no (0)

Q. # lookup: test call for C#C[C@]1(O)CCC2C3CCC4=C(CCC(=O)C4)C3CC[C@@]21C (some centres not stated)
A. no (0)

Q. Which outcome did this test record for the compound CC(C)(Oc1ccc(CCNC(=O)c2ccc(Cl)cc2)cc1)C(=O)O ?
A. no (0)

Q. Look up the recorded call for C[C@@H]1C(=O)O[C@H]2[C@H]1CC[C@@]1(C)C=CC(=O)[C@@]3(C)O[C@@]213 in this test.
A. no (0)

Q. Entry O=c1[nH]cc(F)c(=O)[nH]1 : call = ?
A. yes (1)

Q. # lookup: test call for COc1cc(N)c(Cl)cc1C(=O)NC1CCN(Cc2ccccc2)CC1
A. no (0)

Q. Recorded call for NC(N)=N/N=C/c1c(Cl)cccc1Cl ?
A. no (0)

Q. Which outcome was entered for the compound Nc1ccc(S(=O)(=O)Nc2cnc3ccccc3n2)cc1 in this test?
A. no (0)

Q. Lab log entry: NNC(=O)c1ccncc1 — outcome as called in the assay?
A. no (0)
